All figures here come from patent US20030186281A1.

Tested on: tet operator sequence
assay-info: β-galactosidase activity of a tetracycline-regulated promoter in transformed E. coli with revTetR, in the presence and absence of anhydrotetracycline (atc)
Type: cell-based, Escherichia coli
applied-conditions: RevTetR isolate cultured in the presence of anhydrotetracycline (ATC)
Listed below: β-Galactosidase Activity, Cultured With ATC values for each entry.
reported-property: β-Galactosidase Activity, Cultured With ATC

{"molecule": "TetRrevAF6/12: revTetR(BD) L14F E15E G96V K98E V99L L101P (protein, Modified tetracycline repressor, revTetR(BD) L14F E15E G96V K98E V99L L101P) MSRLDKSKVINSAFELLNEVGIEGLTTRKLAQKLGVEQPTLYWHVKNKRALLDALAVEILARHHDYSLPAAGESWQSFLRNNAMSFRRALLRYRDVAELHPGTRPDEKQYDTVETQLRFMTENGFSLRDGLYAISAVSHFTLGAVLEQQEHTAALTDRPAAPDENLPPLLREALQIMDSDDGEQAFLHGLESLIRGFEVQLTALLQIV", "number": 1.3259}
{"molecule": "TetRrev96/99-6: revTetR(BD) G96N V99Q (protein, Modified tetracycline repressor, revTetR(BD) G96N V99Q) MSRLDKSKVINSALELLNEVGIEGLTTRKLAQKLGVEQPTLYWHVKNKRALLDALAVEILARHHDYSLPAAGESWQSFLRNNAMSFRRALLRYRDNAKQHLGTRPDEKQYDTVETQLRFMTENGFSLRDGLYAISAVSHFTLGAVLEQQEHTAALTDRPAAPDENLPPLLREALQIMDSDDGEQAFLHGLESLIRGFEVQLTALLQIV", "number": 28.364}
{"molecule": "TetRrev96P: revTetR(BD) G96P (protein, Modified tetracycline repressor, revTetR(BD) G96P) MSRLDKSKVINSALELLNEVGIEGLTTRKLAQKLGVEQPTLYWHVKNKRALLDALAVEILARHHDYSLPAAGESWQSFLRNNAMSFRRALLRYRDPAKVHLGTRPDEKQYDTVETQLRFMTENGFSLRDGLYAISAVSHFTLGAVLEQQEHTAALTDRPAAPDENLPPLLREALQIMDSDDGEQAFLHGLESLIRGFEVQLTALLQIV", "number": 4.1882}
{"molecule": "TetRrev04-4: revTetR(BD) G96E V113A (protein, Modified tetracycline repressor, revTetR(BD) G96E V113A) MSRLDKSKVINSALELLNEVGIEGLTTRKLAQKLGVEQPTLYWHVKNKRALLDALAVEILARHHDYSLPAAGESWQSFLRNNAMSFRRALLRYRDEAKVHLGTRPDEKQYDTAETQLRFMTENGFSLRDGLYAISAVSHFTLGAVLEQQEHTAALTDRPAAPDENLPPLLREALQIMDSDDGEQAFLHGLESLIRGFEVQLTALLQIV", "number": 19.878}
{"molecule": "TetRrevAF4/6: revTetR(BD) E15D L17I N18T E23G A54V D95A (protein, Modified tetracycline repressor, revTetR(BD) E15D L17I N18T E23G A54V D95A) MSRLDKSKVINSALDLITEVGIGGLTTRKLAQKLGVEQPTLYWHVKNKRALLDVLAVEILARHHDYSLPAAGESWQSFLRNNAMSFRRALLRYRAGAKVHLGTRPDEKQYDTVETQLRFMTENGFSLRDGLYAISAVSHFTLGAVLEQQEHTAALTDRPAAPDENLPPLLREALQIMDSDDGEQAFLHGLESLIRGFEVQLTALLQIV", "number": 3.7257}
